Tested on: Escherichia coli
Assay: Inhibitory activity against Escherichia coli ANSI
Type: functional
Listed compounds paired with reported MIC

# example entries with known answers
COMPOUND	MIC
CC1=C(O)SC(C)(C(C)C)C1=O (stereo not given)	> 1000 µM
C/C=C/C(C)=C/[C@@]1(C)SC(O)=C(C)C1=O	200 µM
CC1=C(O)SC(C)(CCC(C)C)C1=O (stereo not given)	> 1000 µM

GET /value?item= CCCCCCCC1(C)SC(O)=C(C)C1=O (stereo not given) &field=MIC returns 200 µM

Noted for CC1=C(O)C(C)(Cc2ccc3ccccc3c2)SC1=O (stereo not given) : its MIC reads > 1000 µM

Lookup result for CC1=C(O)C(C)(Cc2ccccc2Cl)SC1=O (stereo not given) ; measured MIC: > 1000 µM

====

Test system: Mycobacterium tuberculosis
Assay: Inhibitory activity against Mycobacterium tuberculosis H37Rv
Assay type: functional
MIC values for the molecules below.
# value in µM; strip the unit string

# annotated cases, reported MIC shown
MOLECULE	TARGET ENTITY	MIC / µM
CCCCCCCCCCCC1(C)SC(O)=C(C)C1=O (stereo not given)	Mycobacterium tuberculosis	500
C=CCCCCCCC1(C)SC(=O)C(C)=C1O (stereo not given)	Mycobacterium tuberculosis	500
CC1=C(O)C(C)(CC2CCC2)SC1=O (stereo not given)	Mycobacterium tuberculosis	1000
C/C=C/C(C)=C/[C@@]1(C)SC(O)=C(C)C1=O	Mycobacterium tuberculosis	1000
CC[C@H](C)CC1(C)SC(O)=C(C)C1=O (stereo not given in full)	Mycobacterium tuberculosis	500
CCCCCCCC1(C)SC(O)=C(C)C1=O (stereo not given)	Mycobacterium tuberculosis	1000
C=C/C(C)=C/C1(C)SC(O)=C(C)C1=O (racemic) [RAC-THIOLACTOMYCIN]	Mycobacterium tuberculosis	125
CC1=C(O)C(C)(CCc2ccccc2)SC1=O (stereo not given)	Mycobacterium tuberculosis	1000

Next:
response.value for CC1=C(O)C(C)(Cc2ccc(Cl)cc2)SC1=O (stereo not given) (field: MIC) = 1000

====

The entries below come with measured IC50 values attached.
Biological target: 3-oxoacyl-[acyl-carrier-protein] synthase 2 (Mycobacterium tuberculosis)
Sequence (P9WQD7 whole entry): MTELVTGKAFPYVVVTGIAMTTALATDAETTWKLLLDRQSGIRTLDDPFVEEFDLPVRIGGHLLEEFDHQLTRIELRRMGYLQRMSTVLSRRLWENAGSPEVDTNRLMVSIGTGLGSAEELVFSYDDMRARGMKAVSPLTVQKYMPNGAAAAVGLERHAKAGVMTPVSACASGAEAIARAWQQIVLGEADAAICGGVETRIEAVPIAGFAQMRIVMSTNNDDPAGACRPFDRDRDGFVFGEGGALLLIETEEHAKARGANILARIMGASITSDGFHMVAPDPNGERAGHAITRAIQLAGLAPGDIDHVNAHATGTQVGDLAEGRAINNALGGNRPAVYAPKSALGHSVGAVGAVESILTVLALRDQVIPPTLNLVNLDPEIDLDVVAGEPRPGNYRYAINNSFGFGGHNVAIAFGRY

COMPOUND	IC50
CC1=C(O)C(C)(Cc2cc(C)ccc2C)SC1=O (stereo unspecified)	> 1000 µM
CC(C)=CCC/C(C)=C/CC/C(C)=C/CC1(C)SC(O)=C(C)C1=O (stereo unspecified)	> 100 µM
CCCCCCCCC(C)C1(C)SC(O)=C(C)C1=O (stereo unspecified)	> 1000 µM
CC1=C(O)C(C)(Cc2ccc3ccccc3c2)SC1=O (stereo unspecified)	> 1000 µM
CC/C=C/CC1(C)SC(O)=C(C)C1=O (stereo unspecified)	> 1000 µM

Documented IC50 of CC1=C(O)C(C)(Cc2ccccc2Cl)SC1=O (stereo unspecified) : > 1000 µM

# IC50 (compound: CC1=C(O)SC(C)(CCC(C)C)C1=O (stereo unspecified) ) is > 1000 µM
